- conditionParameters: buffer; pH 7.4; 200.0 µM
Give measured solubility kinetic for each item. Keep answers brief.
Numbers only; they are read as µg/mL.

# input compound: Clc1ncn(CCOc2ccccc2)c1Cl ; wanted: its solubility kinetic
38.2

# input compound: Cc1ccc(NC(=O)Nc2cccnc2)cc1Cl ; wanted: its solubility kinetic
23.3

# input compound: CCc1ccc(NC(=O)Cn2cnc3c(=O)n(C)c(=O)n(C)c32)cc1 ; wanted: its solubility kinetic
18.6

# input compound: COCCOc1ccc(C(F)(F)F)cc1NC(=O)COC(=O)c1ccc(N2CCCC2=O)cc1 ; wanted: its solubility kinetic
3

# input compound: CCN(CC)S(=O)(=O)c1cccc(NC(=O)COC(=O)c2cncc(Br)c2)c1 ; wanted: its solubility kinetic
40.3

# input compound: CCOC(=O)c1cc(S(=O)(=O)NC2CCCCC2)cn1C ; wanted: its solubility kinetic
43.9

# input compound: CCC1(C)Cc2c(C#N)c(N)n(-c3ccccc3)c(=S)c2CO1 (centres undefined) ; wanted: its solubility kinetic
26.4

# input compound: O=c1cc(O)c2sc(Nc3ccc(F)cc3)nc2[nH]1 ; wanted: its solubility kinetic
0.3

# input compound: CCOc1cc(C(=O)NC(C)CCc2ccccc2)cc(OCC)c1OCC (centres undefined) ; wanted: its solubility kinetic
0.8

# input compound: O=C(Cn1c(NCCO)nc2ccccc21)Nc1cccc(S(=O)(=O)N2CCCC2)c1 ; wanted: its solubility kinetic
63.1

# input compound: CN1C(N)=NC(=O)/C1=C\c1ccc(Br)cc1 ; wanted: its solubility kinetic
33.7

---

- conditionParameters: buffer; pH 7.4; 200.0 µM
measuredAttribute: solubility kinetic (µg/mL)
Numbers only; they are read as µg/mL.

# input compound: O=C1CNC(=S)N1C1CCCCCC1 ; wanted: its solubility kinetic
23.8

# input compound: Cc1ccc(NC(=S)NC(=O)C2CCCC2)cc1C ; wanted: its solubility kinetic
0.5

# input compound: COC(=O)c1[nH]c2ccccc2c1NC(=O)c1ccccc1F ; wanted: its solubility kinetic
2.1

# input compound: CC(C)(C)n1cnc2cc(NCc3ccccc3O)ccc21 ; wanted: its solubility kinetic
34.5

# input compound: Fc1ccc(Nc2c3c(nc4ccccc24)CCC3)cc1 ; wanted: its solubility kinetic
33.1

# input compound: O=C(c1ccc([N+](=O)[O-])o1)N1CCc2ccccc21 ; wanted: its solubility kinetic
2.6

# input compound: COCCNc1nc(N)c([N+](=O)[O-])c(Nc2ccc(F)cc2)n1 ; wanted: its solubility kinetic
0.9

# input compound: O=C1CSC(c2ccccc2F)N1c1ccccc1F (stereo not drawn) ; wanted: its solubility kinetic
3.2

# input compound: CN(Cc1ccccc1)c1ncnc2sccc12 ; wanted: its solubility kinetic
32.4

# input compound: COc1ccc(Oc2nc(-c3ccccn3)nc3ccccc23)cc1 ; wanted: its solubility kinetic
17.6

# input compound: CCOc1ccc2nc(NC(=O)c3ccco3)sc2c1 ; wanted: its solubility kinetic
6.9

# input compound: COc1cccc(CNC(=O)CCCc2cn(C)c3ccccc23)c1 ; wanted: its solubility kinetic
6.1

# input compound: Cc1ccc(S(=O)(=O)N[C@H](C(=O)OCC(=O)NC(=O)C2CCCCC2)C(C)C)cc1 ; wanted: its solubility kinetic
11.4

# input compound: CCOC(=O)c1c(NC(=O)CN2CCN(C(=O)c3ccco3)CC2)sc(C(N)=O)c1C ; wanted: its solubility kinetic
5.6

# input compound: O=c1c(Cl)c2oc3ccccc3nc-2c2ccccc12 ; wanted: its solubility kinetic
4.2

# input compound: CCC(C(=O)NCc1ccc(C)cc1)c1ccccc1 (stereo not drawn) ; wanted: its solubility kinetic
20.2

# input compound: CN(Cc1cccs1)c1nc(-c2cccnc2)nc2ccccc12 ; wanted: its solubility kinetic
3

# input compound: Cc1ccc(N=C2NC(=O)/C(=C/c3cccnc3)S2)c(C)c1 ; wanted: its solubility kinetic
4.8

# input compound: COc1ccc(C(=O)O)cc1S(=O)(=O)NCCN(C)C ; wanted: its solubility kinetic
44.1

# input compound: N/C(=N\OC(=O)CCN1C(=O)c2ccccc2C1=O)c1ccccn1 ; wanted: its solubility kinetic
49.6

# input compound: CC[n+]1ccc(/C=C/c2c[nH]c3ccccc23)cc1.[Cl-] ; wanted: its solubility kinetic
32.8

# input compound: Nc1c(C(=O)Nc2ccccc2)c2nc3ccccc3nc2n1-c1ccc(O)cc1 ; wanted: its solubility kinetic
0.7

# input compound: Cc1ccc2cccc(OCCCOc3ccccc3CO)c2n1 ; wanted: its solubility kinetic
38.1

# input compound: COCCn1c(C)cc(/C=C2/SC(=O)N(C(C)C(=O)OC)C2=O)c1C (stereo not drawn) ; wanted: its solubility kinetic
36

# input compound: O=C1c2ccccc2C(=O)N1c1cc([N+](=O)[O-])ccn1 ; wanted: its solubility kinetic
29.2

# input compound: CC(=O)Nc1ccc2c(c1)ncn2-c1ccc(C)cc1 ; wanted: its solubility kinetic
38.8

# input compound: CN(CC(=O)Nc1ccc(OC(F)(F)F)cc1)C(=O)Cc1cccs1 ; wanted: its solubility kinetic
9.3

# input compound: NC(=O)C1c2ccccc2Oc2ccccc21 ; wanted: its solubility kinetic
24.8
